Test system: 885724-159-R-J1-PDC complex spheroid viability;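 note: spheroids exposed to agents for seven days before readout; percent of vehicle control viability where 100% = DMSO wells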
assay_name: Anticancer human tumor 885724-159-R-J1-PDC patient-derived pancreatic adenocarcinoma cell line growth inhibition [GQUAD]
stated_conditions: second compound 1 µM; first compound 0.316 µM; hits give low values
Criterion: viability, T/C strictly under 80%. Met: 1.0. Not met: 0.0.

# TODO verify viability, T/C < 80% strictly for this compound: COc1cccc2c1C(=O)c1c(O)c3c(c(O)c1C2=O)CC(O)(C(=O)CO)CC3OC1CC(N)C(O)C(C)O1 (stereo unspecified) + Cc1cnc(CNC(=O)c2c(=O)c3ccc(N4CCCN(C)CC4)nc3n3c2sc2ccccc23)cn1 0.0

# TODO verify viability, T/C < 80% strictly for this compound: COc1ncnc(C2CC2)c1-c1ncc2cnn(Cc3ccc(-c4nc(C(F)(F)F)cn4C(C)C)cc3)c2n1 + Cc1cnc(CNC(=O)c2c(=O)c3ccc(N4CCCN(C)CC4)nc3n3c2sc2ccccc23)cn1 0.0

# TODO verify viability, T/C < 80% strictly for this compound: CC1COCCN1c1cc(-c2ccnn2C)c2ccnc(-c3ccn[nH]3)c2n1 (stereo unspecified) + Cc1[nH]c2ccc(F)cc2c1-c1nc2c3cccnc3c3ncccc3c2[nH]1 1.0

# TODO verify viability, T/C < 80% strictly for this compound: CC1COCCN1c1cc(C2(S(C)(=N)=O)CC2)nc(-c2ccnc3[nH]ccc23)n1 (stereo unspecified) + CN(C)c1ccc(Nc2c3ccc(NC(=O)CCN4CCCC4)cc3nc3cc(NC(=O)CCN4CCCC4)ccc23)cc1 1.0

# TODO verify viability, T/C < 80% strictly for this compound: CC(C)n1c(=O)n(C)c2cnc3cc(F)c(-c4ccc(OCCCN5CCCCC5)nc4)cc3c21 + Cc1[nH]c2ccc(F)cc2c1-c1nc2c3cccnc3c3ncccc3c2[nH]1 1.0

# TODO verify viability, T/C < 80% strictly for this compound: CC(=O)O[C@H]1C(=O)[C@@]2(C)[C@H]([C@H](OC(=O)c3ccccc3)[C@]3(O)C[C@H](OC(=O)[C@H](O)[C@@H](NC(=O)c4ccccc4)c4ccccc4)C(C)=C1C3(C)C)[C@]1(OC(C)=O)CO[C@@H]1C[C@@H]2O + Cc1cnc(CNC(=O)c2c(=O)c3ccc(N4CCCN(C)CC4)nc3n3c2sc2ccccc23)cn1 0.0

# TODO verify viability, T/C < 80% strictly for this compound: O=c1[nH]cc(F)c(=O)[nH]1 + Cc1[nH]c2ccc(F)cc2c1-c1nc2c3cccnc3c3ncccc3c2[nH]1 1.0

# TODO verify viability, T/C < 80% strictly for this compound: CCc1c2c(nc3ccc(O)cc13)-c1cc3c(c(=O)n1C2)COC(=O)[C@]3(O)CC + Cc1[nH]c2ccc(F)cc2c1-c1nc2c3cccnc3c3ncccc3c2[nH]1 1.0

# TODO verify viability, T/C < 80% strictly for this compound: CC[C@@]1(O)C(=O)OCc2c1cc1n(c2=O)Cc2cc3c(CN(C)C)c(O)ccc3nc2-1 + Cc1[nH]c2ccc(F)cc2c1-c1nc2c3cccnc3c3ncccc3c2[nH]1 1.0

# TODO verify viability, T/C < 80% strictly for this compound: CC(C)n1c(=O)n(C)c2cnc3cc(F)c(-c4ccc(OCCCN5CCCCC5)nc4)cc3c21 + CN(C)c1ccc(Nc2c3ccc(NC(=O)CCN4CCCC4)cc3nc3cc(NC(=O)CCN4CCCC4)ccc23)cc1 0.0
